- system: Platelet-activating factor receptor (Cavia porcellus)
- assay-details: Ability to prevent PAF-induced bronchoconstriction in guinea pig 2 hr after administration (50 mg/kg perorally)
- Type: functional, organism-based
Mark condition not met for inhibition values under 80%, and condition met for everything at or above.

{"smiles-string": "CC/C(=C\\C=C\\C(=O)N[C@H](C)CCCc1cccnc1)c1ccc(OC)cc1", "class-label": "condition met"}
{"smiles-string": "COc1ccc(C(=C/C=C/C(=O)N[C@H](C)CCCc2cccnc2)c2ccc(OC)cc2)cc1", "class-label": "condition met"}
{"smiles-string": "COc1ccc(/C(=C/C=C/C(=O)N[C@H](C)CCCc2cccnc2)C2CCCCC2)cc1", "class-label": "condition met"}
{"smiles-string": "COc1cccc(/C(=C/C=C/C(=O)NCCCCc2cccnc2)c2cccc(F)c2)c1", "class-label": "condition not met"}
{"smiles-string": "COc1ccc(/C(=C/C=C/C(=O)N[C@H](C)CCCc2cccnc2)C(C)C)cc1", "class-label": "condition not met"}

Reference source for all entries: ChEMBL document CHEMBL1124557
